- assayed system: Histamine H4 receptor (Homo sapiens)
- Sequence (Q9H3N8 whole entry): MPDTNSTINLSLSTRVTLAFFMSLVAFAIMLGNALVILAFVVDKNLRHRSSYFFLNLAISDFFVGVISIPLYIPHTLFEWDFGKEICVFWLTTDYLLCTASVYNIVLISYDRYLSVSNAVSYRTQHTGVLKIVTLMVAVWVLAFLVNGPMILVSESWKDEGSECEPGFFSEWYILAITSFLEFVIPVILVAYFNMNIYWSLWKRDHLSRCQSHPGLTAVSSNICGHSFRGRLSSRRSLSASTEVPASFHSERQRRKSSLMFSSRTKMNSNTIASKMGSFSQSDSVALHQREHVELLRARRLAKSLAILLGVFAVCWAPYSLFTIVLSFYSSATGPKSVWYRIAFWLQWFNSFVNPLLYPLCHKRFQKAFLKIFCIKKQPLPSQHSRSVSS
- experiment description: Displacement of [3H]-histamine from recombinant human histamine H4 receptor expressed in CHO-K1 cell membranes measured after 30 mins by microbeta scintillation counting method
- Design: species or system Cell membrane
endpoint label: IC50

Lookup: Param readout = IC50; param system = Histamine H4 receptor (Homo sapiens); param query = Clc1cnc2nc(N3CC4CCCNC4C3)c3nncn3c2c1 (centres undefined) ; response: value
Found: > 10 µM

Lookup: # returns recorded IC50 (system: Histamine H4 receptor (Homo sapiens)) for "Clc1cnc2nc(N3CCN(C4CC4)CC3)c3nncn3c2c1"
Found: > 10 µM

Lookup: # value lookup — system Histamine H4 receptor (Homo sapiens), readout IC50, item Clc1cnc2nc(N3CCN4CCCC4C3)c3nncn3c2c1 (centres undefined)
Found: 0.052 µM

Lookup: Form: Entry = "Clc1cnc2nc(N3CCCNCC3)c3nncn3c2c1" | System = Histamine H4 receptor (Homo sapiens) | IC50 = ____
Found: > 10 µM

###

Field: solubility at 2 h. Provide a value for each of the compounds that follow.
- experiment description: Solubility of compound in SGF at pH 1.2 incubated for 2 hrs by UPLC-UV analysis
- Assay type: physicochemical
Use µg/mL as the unit, but write only the number.

Lookup: Which solubility at 2 h reading was recorded for the compound "CN1CCN(c2nc3cccnc3n3cnnc23)CC1" ?
Found: 1920

Lookup: Need solubility at 2 h, item "CN1CCN(c2nc3ncc(Br)cc3n3cnnc23)CC1"
Found: 1930

Lookup: Using the record for "Cc1cnc2nc(N3CCN(C)CC3)c3nncn3c2c1" , report its solubility at 2 h.
Found: 2000

Lookup: Recorded solubility at 2 h for "Cc1c(Br)cnc2nc(N3CCN(C)CC3)c3nncn3c12" , please?
Found: 1800

###

- experiment description: Intrinsic clearance in CD1 mouse liver microsomes at 5 uM incubated upto 30 mins in presence of NADPH by UPLC-UV analysis
- Type: ADME, Microsome
- test conditions: read-out: CLH
Answer each item with its documented microsomal CLint at 5 µM.
The reply should read as a number followed by its unit.

Lookup: Record request: microsomal CLint at 5 µM value, item "Cc1c(Br)cnc2nc(N3CCN(C)CC3)c3nncn3c12"
Found: 7.62 µL/min/mg

Lookup: Entry under review: "CN1CCN(c2nc3ccc(Cl)cc3n3cnnc23)CC1" . Reported microsomal CLint at 5 µM?
Found: 29.1 µL/min/mg

Lookup: Given the entry "CN1CCN(c2nc3ncc(Cl)cc3n3cnnc23)CC1" , report its measured microsomal CLint at 5 µM.
Found: 1.98 µL/min/mg

Lookup: // lookup microsomal CLint at 5 µM for "CN1CCN(c2cc3ccc(Cl)cc3n3cnnc23)CC1"
Found: 8.43 µL/min/mg

###

- assayed system: Histamine H3 receptor (Homo sapiens)
- Sequence (Q9Y5N1 whole entry): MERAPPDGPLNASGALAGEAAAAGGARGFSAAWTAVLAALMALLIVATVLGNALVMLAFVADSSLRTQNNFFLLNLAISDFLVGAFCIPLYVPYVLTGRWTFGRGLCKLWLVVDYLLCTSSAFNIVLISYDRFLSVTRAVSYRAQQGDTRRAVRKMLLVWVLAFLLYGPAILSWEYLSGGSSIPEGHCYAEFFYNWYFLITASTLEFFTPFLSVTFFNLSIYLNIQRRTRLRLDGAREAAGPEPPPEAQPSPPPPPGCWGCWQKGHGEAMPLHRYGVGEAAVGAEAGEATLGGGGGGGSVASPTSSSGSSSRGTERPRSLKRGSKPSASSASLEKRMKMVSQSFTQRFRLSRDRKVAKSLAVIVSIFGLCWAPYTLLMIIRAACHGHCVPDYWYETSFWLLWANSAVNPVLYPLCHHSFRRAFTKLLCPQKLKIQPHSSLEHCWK
- experiment description: Displacement of [3H]-N-alpha-methylhistamine from recombinant human histamine H3 receptor expressed in CHO-K1 cell membranes measured after 30 mins by microbeta scintillation counting method
endpoint label: IC50

Lookup: # get_value(readout='IC50', item= "CN1CCN(c2nc3ccccc3n3cnnc23)CC1" )
Found: > 100 µM

Lookup: Look up IC50 for this molecule: "CN1CCN(C(=O)c2cc3cc(Cl)ccc3[nH]2)CC1"
Found: > 100 µM

Lookup: Field request: IC50 | item: "CN1CCN(c2cc3ccc(Cl)cc3n3cnnc23)CC1"
Found: > 100 µM
